These data points were gathered from patent US10287252B2.

# Test System: UniProt:P14902
# Sequence (P14902 whole entry): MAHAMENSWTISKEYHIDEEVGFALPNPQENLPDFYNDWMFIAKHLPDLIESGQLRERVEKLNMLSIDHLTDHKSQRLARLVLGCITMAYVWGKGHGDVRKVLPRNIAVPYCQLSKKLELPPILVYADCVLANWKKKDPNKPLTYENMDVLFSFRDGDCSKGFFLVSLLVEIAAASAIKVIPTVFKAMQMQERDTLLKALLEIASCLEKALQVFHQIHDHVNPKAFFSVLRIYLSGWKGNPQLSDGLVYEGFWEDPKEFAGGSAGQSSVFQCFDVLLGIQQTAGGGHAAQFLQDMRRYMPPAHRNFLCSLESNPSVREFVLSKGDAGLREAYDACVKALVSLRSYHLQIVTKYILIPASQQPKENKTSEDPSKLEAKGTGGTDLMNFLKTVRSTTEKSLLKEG
# Assay Info: SKOV3 Kynurenine cell based assay
# Parameters: IDO expression was induced in the SKOV3 cells by the addition of 500 ng/ml IFN-γ; endogenous in cells; host or cells: SKOV3 (human ovarian adenocarcinoma), induced with IFN-γ
# Details: SKOV3 (human ovarian adenocarcinoma) cells, IDO induced by 500 ng/ml IFN-γ, 500 μM L-tryptophan, 48 hours
Recorded Metric: SKOV3 Kynurenine cell based assay pIC50

{"columns": ["Molecule", "SKOV3 Kynurenine cell based assay pIC50"],
 "data": [
  ["CC(C)S(=O)(=O)Nc1cccc2cnccc12", "+/− (+/− = pIC50 <4.00)"],
  ["CC(=O)Nc1cc2c(NS(=O)(=O)c3ccccc3)cccc2cn1", "+ (+ = pIC50 4.00-4.49)"],
  ["O=S(=O)(NC1CCCc2cnccc21)c1ccccc1 (stereo not drawn)", "+ (+ = pIC50 4.00-4.49)"],
  ["CC(=O)N1CCN(c2cccc3cnccc23)CC1", "+ (+ = pIC50 4.00-4.49)"],
  ["CC(C)CS(=O)(=O)Nc1cccc2cnccc12", "+/− (+/− = pIC50 <4.00)"]
]}

Which SKOV3 Kynurenine cell based assay pIC50 is reported for this molecule? O=C(Nc1ccccc1)c1cccc2cnccc12 + (+ = pIC50 4.00-4.49)

Which SKOV3 Kynurenine cell based assay pIC50 is reported for this molecule? Cc1cc2c(NC(=O)c3ccc4ccccc4n3)cccc2nn1 +/− (+/− = pIC50 <4.00)

Which SKOV3 Kynurenine cell based assay pIC50 is reported for this molecule? O=S(=O)(Nc1cccc2ccncc12)c1ccc(-c2ccccc2)cc1 + (+ = pIC50 4.00-4.49)
